Data provenance: ChEMBL document CHEMBL1275439

system: Acinetobacter baumannii; assay: Antimicrobial activity against Acinetobacter baumannii Ab290 harboring TVICU53 plasmid by broth dilution test; type: functional
Measurement label: MIC (µg/mL)

[[record]]
compound = "CC(C)(O/N=C(\\C(=O)N[C@@H]1C(=O)N2C(C(=O)[O-])=C(C[n+]3ccccc3)CS[C@H]12)c1csc(N)n1)C(=O)O"
measurement_label = "MIC"
units_of_measure = "µg/mL"
value_prefix = "="
numeric_result = 4

[[record]]
compound = "CO/N=C(\\C(=O)N[C@@H]1C(=O)N2C(C(=O)O)=C(COC(C)=O)CS[C@H]12)c1csc(N)n1"
measurement_label = "MIC"
units_of_measure = "µg/mL"
value_prefix = "="
numeric_result = 8

[[record]]
compound = "CC1(C)S[C@@H]2[C@H](NC(=O)[C@H](N)c3ccc(O)cc3)C(=O)N2[C@H]1C(=O)O"
measurement_label = "MIC"
units_of_measure = "µg/mL"
value_prefix = ">"
numeric_result = 256

[[record]]
compound = "CC1(C)S[C@@H]2[C@H](NC(=O)[C@H](C(=O)O)c3ccsc3)C(=O)N2[C@H]1C(=O)O"
measurement_label = "MIC"
units_of_measure = "µg/mL"
value_prefix = ">"
numeric_result = 1020

[[record]]
compound = "C[C@@H](O)[C@H]1C(=O)N2C(C(=O)O)=C(S[C@@H]3CN[C@H](C(=O)N(C)C)C3)[C@H](C)[C@H]12"
measurement_label = "MIC"
units_of_measure = "µg/mL"
value_prefix = "="
numeric_result = 16

[[record]]
compound = "C[C@@H](O)[C@H]1C(=O)N2C(C(=O)O)=C(SCCNC=N)C[C@H]12 [IMIPENEM ANHYDROUS]"
measurement_label = "MIC"
units_of_measure = "µg/mL"
value_prefix = "="
numeric_result = 32

[[record]]
compound = "CO/N=C(\\C(=O)N[C@@H]1C(=O)N2C(C(=O)O)=C(COC(N)=O)CS[C@H]12)c1ccco1"
measurement_label = "MIC"
units_of_measure = "µg/mL"
value_prefix = "="
numeric_result = 32

[[record]]
compound = "C[C@H]1[C@H](NC(=O)/C(=N\\OC(C)(C)C(=O)O)c2csc(N)n2)C(=O)N1S(=O)(=O)O"
measurement_label = "MIC"
units_of_measure = "µg/mL"
value_prefix = "="
numeric_result = 16


###

tested on: Acinetobacter baumannii; test: Antimicrobial activity against Acinetobacter baumannii ATCC 15151T containing plasmid harboring OXA-58-3 by broth dilution test; assay type: functional
Recorded MIC by entry
Measurement label: MIC (µg/mL)

[[record]]
compound = "C[C@@H](O)[C@H]1C(=O)N2C(C(=O)O)=C(S[C@@H]3CN[C@H](C(=O)N(C)C)C3)[C@H](C)[C@H]12 [MEROPENEM]"
units_of_measure = "µg/mL"
value_prefix = "="
numeric_result = 32

[[record]]
compound = "C[C@H]1[C@H](NC(=O)/C(=N\\OC(C)(C)C(=O)O)c2csc(N)n2)C(=O)N1S(=O)(=O)O [AZTREONAM]"
units_of_measure = "µg/mL"
value_prefix = "="
numeric_result = 128

[[record]]
compound = "CC1(C)S[C@@H]2[C@H](NC(=O)[C@H](C(=O)O)c3ccsc3)C(=O)N2[C@H]1C(=O)O [TICARCILLIN]"
units_of_measure = "µg/mL"
value_prefix = ">"
numeric_result = 1020

[[record]]
compound = "CO/N=C(\\C(=O)N[C@@H]1C(=O)N2C(C(=O)O)=C(COC(C)=O)CS[C@H]12)c1csc(N)n1 [CEFOTAXIME]"
units_of_measure = "µg/mL"
value_prefix = "="
numeric_result = 16

[[record]]
compound = "CC(C)(O/N=C(\\C(=O)N[C@@H]1C(=O)N2C(C(=O)[O-])=C(C[n+]3ccccc3)CS[C@H]12)c1csc(N)n1)C(=O)O [CEFTAZIDIME]"
units_of_measure = "µg/mL"
value_prefix = "="
numeric_result = 8

[[record]]
compound = "C[C@@H](O)[C@H]1C(=O)N2C(C(=O)O)=C(SCCNC=N)C[C@H]12 [IMIPENEM ANHYDROUS]"
units_of_measure = "µg/mL"
value_prefix = "="
numeric_result = 32

